Origin of the recorded values: patent US12202844B2

The next entries give measured IC50 for UniProt Q92918.
Field format: number, assumed nM, no unit text.

Input: Can you look up the measured IC50 of CC[C@@H](CCS(C)(=O)=O)Oc1ncc([C@](C)(N)CC)c2cc(Nc3ccc4c(n3)[C@@H](C)[C@H](C)OC4=O)ncc12 (single isomer, unassigned) [Compound 83] for me?
Output: 0.92

Input: What does the data say about its IC50? Entry: COC[C@@](C)(N)c1cnc(O[C@H]2C[C@@H](S(=O)(=O)C3CC3)C2)c2cnc(Nc3ccc4c(n3)[C@@H](C)C(C)(C)OC4=O)cc12 [Compound 145]
Output: 0.21

Input: Any idea what IC50 was measured for CC[C@@](C)(N)c1cnc(O[C@H](C)CC[S@@+](C)[O-])c2cnc(Nc3ccc4c(n3)[C@@H](C)[C@H](C)OC4=O)cc12 (single isomer, unassigned) [Compound 166] ?
Output: 0.2

Input: What does the data say about its IC50? Entry: C[C@@H]1c2nc(Nc3cc4c(C(C)(C)N)cnc(OC5CS(=O)(=O)C5)c4cn3)ccc2C(=O)OC1(C)C [Compound 3]
Output: 0.12

Input: Quick one: IC50 of CC[C@@](C)(N)c1cnc(O[C@@H](C)CCS(C)(=O)=O)c2cnc(Nc3ccc4c(n3)C3(CC3)C(C)(C)OC4=O)cc12 [Compound 146] ?
Output: 1.41

Input: Look at this molecule and give its reported IC50. C[C@@H]1OC(=O)c2ccc(Nc3cc4c(C(C)(C)N)cnc(O[C@@H]5CC[C@H](S(C)(=O)=O)C5)c4cn3)nc2[C@H]1C (single isomer, unassigned) [Compound 41]
Output: 0.68

Input: Please report the recorded IC50 for CC[C@@](C)(N)c1cnc(O[C@H]2C[C@@H](S(=O)(=O)CC)C2)c2cnc(Nc3ccc4c(n3)[C@@H](C)C(C)(C)OC4=O)cc12 [Compound 117] .
Output: 0.05

Input: Could you share which IC50 value was measured for CC[C@@](C)(N)c1cnc(O[C@H](C)C[C@@H](C)[S@@](C)(=N)=O)c2cnc(Nc3ccc4c(n3)C(C)(C)[C@@H](C)OC4=O)cc12 (single isomer, unassigned) [Compound 182] ?
Output: 0.16

Input: Which IC50 value is on record for CCS(=O)(=O)[C@H](C)C[C@@H](C)Oc1ncc(C(C)(C)N)c2cc(Nc3ccc4c(n3)[C@@H](C)[C@H](C)OC4=O)ncc12 [Compound 89] ?
Output: 0.24

Input: Field request: IC50 | item: C[C@@H]1OC(=O)c2ccc(Nc3cc4c(C(C)(C)N)cnc(O[C@H]5C[C@H](S(C)(=O)=O)C5)c4cn3)nc2[C@H]1C [Compound 14]
Output: 0.28

Input: Suppose we examine the molecule C[C@H](CCS(C)(=O)=O)Oc1ccc(C(C)(C)N)c2cc(Nc3ccc4c(n3)[C@@H](C)C(C)(C)OC4=O)ncc12 (single isomer, unassigned) [Compound 45] ; what IC50 value has been reported?
Output: 0.2

====

# System: Primary T Cell (expanded CD3+ T cells)
# Test: T cell enhancement of cytokines: IL2 measurement (HTRF) in stimulated expanded CD3+ T cells
# Assay type: cell-based, human
# Measurement parameters: Homo sapiens, T-cell, 24 h, plate-bound anti-CD3 and soluble anti-CD28, 24 h, IL2 by HTRF; read-out: IL-2 Primary T Cell EC50
pEC50: −log10 of the molar value.
Decide by pEC50: equal to or exceeding 8 means Condition met, less means Condition not met.

Input: // inclusive: pEC50 at least 8? input: CC[C@@](C)(N)c1cnc(O[C@H]2C[C@@H](S(=O)(=O)CC)C2)c2cnc(Nc3ccc4c(n3)[C@@H](C)[C@H](C)OC4=O)cc12
Output: Condition met

Input: Is the recorded value of pEC50 equal to or greater than 8 for this compound? CC[C@@](C)(N)c1cnc(O[C@@H](C)CCS(C)(=O)=O)c2cnc(Nc3ccc4c(n3)[C@@H](C)[C@@H](C)OC4=O)cc12 (single isomer, unassigned)
Output: Condition not met

Input: Has CC[C@@](C)(N)c1cnc(O[C@@H](C)CCS(=O)(=O)CC)c2cnc(Nc3ccc4c(n3)[C@@H](C)C(C)(C)OC4=O)cc12 a recorded pEC50 greater than or equal to 8?
Output: Condition not met

Input: Can CC[C@@](C)(N)c1cnc(O[C@H](C)C[C@@H](C)S(C)(=O)=O)c2cnc(Nc3ccc4c(n3)CC(C)(C)OC4=O)cc12 be said to have pEC50 at or above 8?
Output: Condition not met

Input: Quick check: does CCS(=O)(=O)C[C@H]1C[C@@H](Oc2ncc(C(C)(C)N)c3cc(Nc4ccc5c(n4)[C@@H](C)C(C)(C)OC5=O)ncc23)C1 (single isomer, unassigned) have pEC50 greater than or equal to 8?
Output: Condition not met

====

Reported metric: pIC50
Just so you know, pIC50 here is -log10 of the concentration in molar units; reply with that number alone.

Input: Hello, I am looking for reported pIC50 with MAP4K1 (HPK1) (Homo sapiens) for CC[C@@](C)(N)c1cnc(O[C@H](C)CCS(C)(=O)=O)c2cnc(Nc3ccc4c(n3)C3(CC3)C(C)(C)OC4=O)cc12 [Compound 105] . Could you help?
Output: 9.43

Input: Provide the documented pIC50 with MAP4K1 (HPK1) (Homo sapiens) as the system for CCC[C@@](C)(N)c1cnc(O[C@H](C)C[C@@H](C)S(C)(=O)=O)c2cnc(Nc3ccc4c(n3)[C@@H](C)[C@H](C)OC4=O)cc12 (single isomer, unassigned) [Compound 125]
Output: 9.74

Input: Any idea what pIC50 came out for CC[C@@](C)(N)c1cnc(O[C@H]2C[C@@H](S(C)(=O)=O)C2)c2cnc(Nc3ccc4c(n3)[C@H](C)COC4=O)cc12 (single isomer, unassigned) [Compound 8] on MAP4K1 (HPK1) (Homo sapiens)?
Output: 9.51

Input: Notebook: pull reported pIC50 for MAP4K1 (HPK1) (Homo sapiens), entry C[C@@H]1[C@@H](Oc2ncc(C(C)(C)N)c3cc(Nc4ccc5c(n4)[C@@H](C)[C@H](C)OC5=O)ncc23)C[C@H]1S(C)(=O)=O (single isomer, unassigned) [Compound 30]
Output: 9.10

Input: Checklist item: pIC50 tested on MAP4K1 (HPK1) (Homo sapiens), entry CCC[C@@](C)(N)c1cnc(O[C@H](C)C[C@@H](C)S(C)(=O)=O)c2cnc(Nc3ccc4c(n3)[C@@H](C)C(C)(C)OC4=O)cc12 (single isomer, unassigned) [Compound 142] , value?
Output: 9.70

====

Exercise: for every item that follows, state its recorded pEC50.
# System: Primary T Cell (expanded CD3+ T cells)
# Test: T cell enhancement of cytokines: IL2 measurement (HTRF) in stimulated expanded CD3+ T cells
# Type: cell-based, human
# Measurement parameters: Homo sapiens, T-cell, 24 h, plate-bound anti-CD3 and soluble anti-CD28, 24 h, IL2 by HTRF; read-out: IL-2 Primary T Cell EC50
In simple prose, pEC50 is minus the logarithm base ten of a concentration in moles per litre.

Input: Form field: reported pEC50 of COC[C@@](C)(N)c1cnc(O[C@H]2C[C@@H](S(=O)(=O)C3CC3)C2)c2cnc(Nc3ccc4c(n3)[C@@H](C)C(C)(C)OC4=O)cc12
Output: 7.49

Input: What value of pEC50 has been reported for the following compound? CC[C@@](C)(N)c1cnc(O[C@H](C)CCS(C)(=O)=O)c2cnc(Nc3ccc4c(n3)[C@@H](C)[C@H](C)OC4=O)cc12
Output: 8.05

Input: Need pEC50, item CC[C@@](C)(N)c1cnc(O[C@H](C)CCS(C)(=O)=O)c2cnc(Nc3ccc4c(n3)C3(CC3)C(C)(C)OC4=O)cc12
Output: 7.39

Input: pEC50 for C[C@H](CCS(C)(=O)=O)Oc1ncc(C(C)(C)N)c2cc(Nc3ccc4c(n3)C3(CC3)[C@@H](C)OC4=O)ncc12 (single isomer, unassigned) ?
Output: 7.62

Input: If you can, please state the reported pEC50 value of CCS(=O)(=O)[C@H]1C[C@@H](Oc2ccc(C(C)(C)N)c3cc(Nc4ccc5c(n4)[C@@H](C)C(C)(C)OC5=O)ncc23)C1 .
Output: 7.85

Input: # pEC50 lookup, item C[C@H](C[C@@H](C)S(C)(=O)=O)Oc1ncc(C(C)(C)N)c2cc(Nc3ccc4c(n3)[C@@H](C)C(C)(C)OC4=O)ncc12
Output: 7.62

====

Please provide measured pIC50 for the entries that follow.
# Experimental system: MAP4K1 (HPK1) (Homo sapiens, UniProt Q92918)
# Sequence (Q92918 whole entry): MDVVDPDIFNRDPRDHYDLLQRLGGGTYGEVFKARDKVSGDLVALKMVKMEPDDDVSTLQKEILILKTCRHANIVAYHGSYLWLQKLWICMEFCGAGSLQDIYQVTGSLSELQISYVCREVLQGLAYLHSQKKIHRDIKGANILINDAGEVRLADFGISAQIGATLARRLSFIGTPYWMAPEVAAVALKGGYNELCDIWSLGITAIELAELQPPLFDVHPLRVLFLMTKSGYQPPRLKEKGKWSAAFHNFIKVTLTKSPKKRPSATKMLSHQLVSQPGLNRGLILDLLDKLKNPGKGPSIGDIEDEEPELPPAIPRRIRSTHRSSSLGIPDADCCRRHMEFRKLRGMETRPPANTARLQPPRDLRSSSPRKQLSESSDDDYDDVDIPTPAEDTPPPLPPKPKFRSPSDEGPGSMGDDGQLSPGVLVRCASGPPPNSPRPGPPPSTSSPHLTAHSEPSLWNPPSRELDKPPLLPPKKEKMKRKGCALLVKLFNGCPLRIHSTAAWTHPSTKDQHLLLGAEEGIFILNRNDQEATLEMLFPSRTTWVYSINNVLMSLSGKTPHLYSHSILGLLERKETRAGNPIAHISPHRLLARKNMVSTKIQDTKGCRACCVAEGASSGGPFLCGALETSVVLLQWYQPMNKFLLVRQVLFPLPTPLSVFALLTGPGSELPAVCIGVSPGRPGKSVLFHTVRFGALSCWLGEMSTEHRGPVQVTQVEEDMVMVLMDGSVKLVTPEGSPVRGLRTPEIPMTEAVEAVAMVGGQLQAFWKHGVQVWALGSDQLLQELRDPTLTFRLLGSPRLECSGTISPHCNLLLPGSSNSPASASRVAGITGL
Formally, pIC50 is defined as -log10 of the concentration c, with c in mol/L.

Input: # lookup: pIC50 of CC[C@@](C)(N)c1cnc(O[C@H]2C[C@@H](S(C)(=O)=O)C2)c2cnc(Nc3ccc4c(n3)C3(CC3)C(C)(C)OC4=O)cc12 [Compound 100]
Output: 9.82

Input: Form field: reported pIC50 of CC[C@@](C)(N)c1cnc(O[C@H](C)CC[S@+](C)[O-])c2cnc(Nc3ccc4c(n3)[C@@H](C)[C@H](C)OC4=O)cc12 (single isomer, unassigned) [Compound 167]
Output: 9.72

Input: Field request: pIC50 | item: CCS(=O)(=O)CC[C@@H](C)Oc1ncc(C(C)(C)N)c2cc(Nc3ccc4c(n3)[C@@H](C)C(C)(C)OC4=O)ncc12 (single isomer, unassigned) [Compound 98]
Output: 9.64

Input: Please give the measured pIC50 for this compound: C[C@@H]1c2nc(Nc3cc4c(C(C)(C)N)cnc(OCCC[S@@](C)(=N)=O)c4cn3)ccc2C(=O)OC1(C)C (single isomer, unassigned) [Compound 169]
Output: 9.22

Input: Recorded pIC50 of CCS(=O)(=O)[C@H]1C[C@@H](Oc2ncc([C@H](N)C3CC3)c3cc(Nc4ccc5c(n4)[C@@H](C)C(C)(C)OC5=O)ncc23)C1 (single isomer, unassigned) [Compound 101] , please.
Output: 9.32

Input: Query: pIC50; subject: CC[C@@](C)(N)c1cnc(O[C@H](C)C[C@@H](C)[S@@](C)(=N)=O)c2cnc(Nc3ccc4c(n3)C(C)(C)[C@@H](C)OC4=O)cc12 (single isomer, unassigned) [Compound 183]
Output: 9.80

Input: Using the record for C[C@H]1[C@H](Oc2ncc(C(C)(C)N)c3cc(Nc4ccc5c(n4)[C@@H](C)C(C)(C)OC5=O)ncc23)C[C@@H]1S(C)(=O)=O (single isomer, unassigned) [Compound 69] , report its pIC50.
Output: 10.00

Input: For the compound shown here, C[C@@H]1OC(=O)c2ccc(Nc3cc4c(C(C)(C)N)cnc(O[C@@H](C)C[C@@H]5CCCS5(=O)=O)c4cn3)nc2[C@H]1C (single isomer, unassigned) [Compound 156] , give the reported pIC50.
Output: 8.62

Input: Quick one: pIC50 of CCC[C@@](C)(N)c1cnc(O[C@H](C)C[C@@H](C)S(C)(=O)=O)c2cnc(Nc3ccc4c(n3)CC(C)(C)OC4=O)cc12 (single isomer, unassigned) [Compound 124] ?
Output: 9.59

Input: So what does the record say about pIC50 for C[C@@H]1c2nc(Nc3cc4c(C(C)(C)N)cnc(O[C@H]5C[C@@H](S(=O)(=O)N(C)C)C5)c4cn3)ccc2C(=O)OC1(C)C [Compound 118] ?
Output: 9.96

Input: What value of pIC50 has been reported for the following compound? CC[C@@](C)(N)c1cnc(O[C@@H](C)CCS(=O)(=O)CC)c2cnc(Nc3ccc4c(n3)[C@@H](C)C(C)(C)OC4=O)cc12 [Compound 132]
Output: 9.72

Input: // query pIC50 value for entry CCC[C@@H](N)c1cnc(O[C@H]2C[C@@H](S(C)(=O)=O)C2)c2cnc(Nc3ccc4c(n3)[C@@H](C)C(C)(C)OC4=O)cc12 (single isomer, unassigned) [Compound 79]
Output: 9.47

Input: pIC50 lookup needed for C[C@@H]1OC(=O)c2ccc(Nc3cc4c(C(C)(C)N)cnc(O[C@@H]5CC[C@@H](S(C)(=O)=O)C5)c4cn3)nc2[C@H]1C (single isomer, unassigned) [Compound 34] , thanks.
Output: 9.25

Input: Returns the measured pIC50 for the input compound. Input: CC[C@@](C)(N)c1cnc(O[C@@H](C)CCS(C)(=O)=O)c2cnc(Nc3ccc4c(n3)[C@@H](C)[C@H](C)OC4=O)cc12 [Compound 53]
Output: 9.96

Input: Reported pIC50, compound CC[C@@](C)(N)c1cnc(O[C@H]2C[C@@H](S(C)(=O)=O)C2)c2cnc(Nc3ccc4c(n3)C3(CC3)[C@@H](C)OC4=O)cc12 (single isomer, unassigned) [Compound 58] : ____
Output: 10.00

Input: Query: pIC50; subject: CC[C@@](C)(N)c1cnc(O[C@H](C)C[C@@H](C)S(C)(=O)=O)c2cnc(Nc3ccc4c(n3)[C@@H](C)[C@H](C)OC4=O)cc12 [Compound 90]
Output: 9.96

Input: Dear colleague, I am looking for the recorded pIC50 of the following compound: C[C@H](C[C@H]1CCCS1(=O)=O)Oc1ncc(C(C)(C)N)c2cc(Nc3ccc4c(n3)[C@@H](C)C(C)(C)OC4=O)ncc12 (single isomer, unassigned) [Compound 160]
Output: 8.79

Input: Recorded pIC50 for CC[C@@](C)(N)c1cnc(O[C@H](C)C[C@@H](C)S(=O)(=O)CC)c2cnc(Nc3ccc4c(n3)[C@@H](C)[C@H](C)OC4=O)cc12 [Compound 127] , please?
Output: 9.92

Input: State the recorded pIC50 for this entry: CC[C@@](C)(N)c1cnc(O[C@H](C)C[C@@H](C)S(=O)(=O)CC)c2cnc(Nc3ccc4c(n3)[C@@H](C)C(C)(C)OC4=O)cc12 [Compound 143]
Output: 9.82

Input: I would be grateful if you could share the reported pIC50 for C[C@H](C[C@@H](C)S(C)(=O)=O)Oc1ncc(C(C)(C)N)c2cc(Nc3ccc4c(n3)C3(CC3)C(C)(C)OC4=O)ncc12 [Compound 103] .
Output: 9.26

Input: State the recorded pIC50 for this entry: CC[C@@](C)(N)c1cnc(O[C@H]2C[C@@H](S(C)(=O)=O)C2)c2cnc(Nc3ccc4c(n3)[C@H](C)COC4=O)cc12 (single isomer, unassigned) [Compound 9]
Output: 9.04
